The values you see were collected from the supplement of paper PMC10567573.

B1: FAM46C (parent)
chain: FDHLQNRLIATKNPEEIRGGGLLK

variants of: B1; test: protein stability index of a GFP-peptide fusion (GPS, HEK-293T) (PSI 1-6); higher = more stable; settings: c terminus: a fixed tail appended;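 also: lentivirally expressed fusions sorted by FACS into six bins by GFP to DsRed ratio, PSI derived from sequencing read proportions per bin multiplied by bin number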
RECORDED METRIC: protein stability index
# respond with the number and nothing more

Worked set:
FDHYQNRLIATKNPEEIRGGGLLK [L4Y] = 3.85
FDHLQNRLIADKNPEEIRGGGLLK [T11D] = 3.75
FDHLKNRLIATKNPEEIRGGGLLK [Q5K] = 3.67
DDHLQNRLIATKNPEEIRGGGLLK [F1D] = 5.18
FDHLQNRLIATKNPEEIRPGGLLK [G19P] = 3.29

// below: protein stability index requested for another variant
Problem: Let me know recorded protein stability index for FDHLQNRLIATKNPELIRGGGLLK [E16L] , thanks.
Solution: 2.9
